Assay Target: APJ receptor (Homo sapiens (Human))
Sequence (P35414 whole entry): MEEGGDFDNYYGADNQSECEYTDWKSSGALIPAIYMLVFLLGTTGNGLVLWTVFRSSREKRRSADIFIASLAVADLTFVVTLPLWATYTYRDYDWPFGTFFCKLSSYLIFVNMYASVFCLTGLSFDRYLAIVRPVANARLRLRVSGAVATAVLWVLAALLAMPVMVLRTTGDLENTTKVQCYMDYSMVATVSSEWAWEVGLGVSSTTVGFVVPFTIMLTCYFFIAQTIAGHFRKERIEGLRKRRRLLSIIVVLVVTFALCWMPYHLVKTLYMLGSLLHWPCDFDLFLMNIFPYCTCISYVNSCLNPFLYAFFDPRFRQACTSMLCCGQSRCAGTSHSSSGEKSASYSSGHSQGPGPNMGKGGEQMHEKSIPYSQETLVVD
Measurement Description: [35S]GTPγS binding assay on membranes from CHO cells stably expressing human APJ receptor
Type: biochemical
Recorded Conditions: membranes of CHO cells stably expressing human APJ receptor, means of several independent experiments, read-out: Activity hAPJ SPA EC50 IP
pEC50: −log10 of the molar value.
The compounds listed here are annotated with their pEC50.

[
  {
    "Compound": "COc1cccc(OC)c1-n1c(NS(=O)(=O)[C@@H](C)[C@@H](O)c2ccc(F)cn2)nnc1-c1ccc(C)o1 (single isomer, unassigned) [Example 79.0]",
    "Assay Target": "APJ receptor (Homo sapiens (Human))",
    "pEC50": 9.01
  },
  {
    "Compound": "COc1ccccc1-n1c(NS(=O)(=O)[C@@H](C)[C@H](C)c2ncc(F)cn2)nnc1-c1ccc(C)o1 [Example 172.0]",
    "Assay Target": "APJ receptor (Homo sapiens (Human))",
    "pEC50": 8.92
  },
  {
    "Compound": "COc1ncnc(OC)c1-n1c(NS(=O)(=O)[C@@H](C)[C@H](OC)c2ncc(C)cn2)nnc1-c1ccc(C)o1 [Example 3.0]",
    "Assay Target": "APJ receptor (Homo sapiens (Human))",
    "pEC50": 9.51
  },
  {
    "Compound": "COc1cccc(OC)c1-n1c(NS(=O)(=O)C[C@H](O)c2ccc(C#N)cn2)nnc1-c1ccc(C)o1 (single isomer, unassigned) [Example 66.0]",
    "Assay Target": "APJ receptor (Homo sapiens (Human))",
    "pEC50": 9.49
  },
  {
    "Compound": "COc1cccc(OC)c1-n1c(NS(=O)(=O)[C@@H](C)Cc2ncc(F)cn2)nnc1-c1ccc(C)o1 (single isomer, unassigned) [Example 108.0]",
    "Assay Target": "APJ receptor (Homo sapiens (Human))",
    "pEC50": 9.60
  },
  {
    "Compound": "COc1cccc(OC)c1-n1c(NS(=O)(=O)[C@H](C)[C@@H](O)c2cn3ccccc3n2)nnc1-c1ccc(C)o1 (racemic) [Example 269.0]",
    "Assay Target": "APJ receptor (Homo sapiens (Human))",
    "pEC50": 9.31
  }
]
